Target Or Test System: HLA-DR DRB1*0301 (DR3) (Homo sapiens, UniProt P01903+P01911, A100K/A102G/A103R/A169T/F55Y/I96L/K41T/L162R/M171V/P40S/Q125H/Q178H/Q39Y/R42S/S66N/T106N/T262R/W38E/Y61H)
Sequence (P01903 26-254 limits assumed, other chains not shown): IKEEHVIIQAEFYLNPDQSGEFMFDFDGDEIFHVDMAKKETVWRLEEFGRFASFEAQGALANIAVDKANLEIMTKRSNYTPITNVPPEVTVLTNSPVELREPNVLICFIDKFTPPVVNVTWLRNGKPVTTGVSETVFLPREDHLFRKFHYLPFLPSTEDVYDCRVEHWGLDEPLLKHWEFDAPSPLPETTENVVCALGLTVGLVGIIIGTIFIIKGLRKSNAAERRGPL
Test: biochemical
Type: binding
No end group written: not given here.
Please use satisfied for IC50 under 20 µM and not satisfied for everything else, ties included.

Observe how each entry below is paired with its result.
Regarding `RNFYVINRLTGYLRN` , kindly confirm whether its IC50 is beneath 20 µM.
satisfied

Regarding `SFLQNPQTSLTFSES` , kindly confirm whether its IC50 is beneath 20 µM.
satisfied

Regarding `ALLKNYGLLYTFRKD` , kindly confirm whether its IC50 is beneath 20 µM.
satisfied

Now for a further substance.
Regarding `HLDMLRHLYQGCQVV` , kindly confirm whether its IC50 is beneath 20 µM.
not satisfied

----------
Target Or Test System: HLA-DR DRB1*1101 (DR11) (Homo sapiens, UniProt P01903+P01911, A100R/A169T/A87E/I96F/K41T/L162R/M171V/P40S/Q125H/Q178H/Q39Y/Q99D/R42S/S66Y/T262R/V115G/W38E)
Sequence (P01903 26-254 limits assumed, other chains not shown): as above
Test: biochemical
Assay type: binding
Details: DRB1 *1101
No end group written: not given here.
Please use the following IC50 ranges when assigning a class: Low: < 0.9 µM; Mid: ≥ 0.9 µM and < 7 µM; High: ≥ 7 µM

Pick a category. Item: `SDSNIYDLLKDLEEG`
High

Pick a category. Item: `QTQKLLWQLNGRLEY`
High

Pick a category. Item: `MSYNLLGFLQRSSNT`
Mid

Pick a category. Item: `YYDYSVYGATLESIT`
High

Pick a category. Item: `LFRVYSNFLRGKLKL`
Low

Pick a category. Item: `ITDSRVLERYLLEAK`
Mid

Pick a category. Item: `ALVRQGLAKVA`
High

Pick a category. Item: `KEDSHTAWTIVRVEI`
High

Pick a category. Item: `RSSNTQTQKLLWQLN`
High

Pick a category. Item: `LGFLQRSSNCQSQKL`
Low

Pick a category. Item: `LQQMLLGTLQVVCPG`
High

Pick a category. Item: `AHAAHAAHAAHAAHAA`
High

Pick a category. Item: `YGAVVNLRKTVVNFP`
Low

----------
Target Or Test System: HLA-A*2902 (Homo sapiens, UniProt P04439, A270S/D101N/D185E/E176V/E277Q/E87Q/F33T/G231S/H175R/I121M/I218V/I322F/K168Q/L300P/L318F/M331R/P208A/P217A/Q86L/T323A/T345S/V100A/V358M)
Test: MHC molecular binding / Capture assay, IC50: A*2902
Details: Binding affinity to A*2902 (expressed as an IC50)
No end group written: not given here.
Assay Endpoint: pIC50
Answers are plain numbers, as −log10 of the molar value.

Parameter requested: pIC50. Apply to each item below.
1. QAAESNERY
2. LSLDGPGPGY
3. TLEKLGPGPGY
4. SYKSSKRDKF
5. ELEASISGKY

[4.61, 6.56, 5.35, 4.90, 4.66]

----------
Target Or Test System: HLA-B*5101 (Homo sapiens, UniProt P01889, A329T/A93T/A95T/C349S/D138N/D201E/D98Y/E187L/E204Q/E69T/G107R/I218V/K202T/L105A/L119W/N104I/Q94N/R106L/R155S/R180L/S101N/S121T/S35A/S48A/V306I/V36M/Y195H/Y91F)
Test: biochemical
Details: B*5101 binding affinity (IC50)
pIC50: −log10 of the molar value. No end group written: not given here.
Assay Endpoint: pIC50

The cases that follow already have their pIC50 on record.
Quote pIC50 reported for `GPKVKQWPI` please.
< 4.26

Quote pIC50 reported for `GPGHKARVI` please.
< 4.26

Quote pIC50 reported for `RPRGPGPGSEF` please.
< 4.83

Parameter requested: pIC50. Apply to each item below.
1. RPQVPLRPI
2. QPRAPIRPI

1: < 5.05; 2: < 4.26
